Source of measurements: the supplement of paper PMC9170038

Hi there, I'd appreciate the recorded apparent KD of MS2 coat protein for every entry that follows.
# Tested on: MS2 coat protein
# RUN_DESCRIPTION: apparent KD of MS2 coat protein; designed switch direction (-1 OFF switch, 1 ON switch): -1; higher = weaker reporter binding
# CONDITION_LABEL: input ligand: microRNA oligo, concentration not stated
For clarity, give the value followed by its unit.

Record excerpt, results attached:
CACGAAUUGUGAGGAUAUGUGCGACAAAGUUGCACAGAAGGCACAUGAGGAUCACCCAUGUAAGCUAGGUCGAAAGACCUAGCG [Omei Exc(NG)1 Av1] (Eterna round: R96, puzzle: Exclusion NG 1) ... 22.7 nM
AUUGUUUGAUACCUCUAAUACAUGAGGAUCACCCAUGUUAUCGAGGAUAUGCAGAAUAGAUUAGAGCAGAAGGCGAAGUAAUAU [JR_ExcNG3_Sub026] (Eterna round: R96, puzzle: Exclusion NG 3) ... 13.3 nM
AGCUGUGGCCGAGGAUAUCACGACCGAUGGAAAACCAUCGGAACUCCACAUGAGGAUCACCCAUGUGAGAAGGCGGUCUCAGCA [Eli eng2 - 028] (Eterna round: R96, puzzle: Exclusion NG 2) ... 10.2 nM

Batch request: apparent KD of MS2 coat protein for each of the following sequences.
1. CGGGUGCGGUGAGGAUAUCCGAAAGGAAGUGUAGGAGAAGGCACCAAGAACAUGAGGAUCACCCAUGUGACCUCAUAAGCCCGG [PowerStrip EXNG 1.9] (Eterna round: R96, puzzle: Exclusion NG 1)
2. UAUAUAUAGUAAGGAUAUGUAUUAAUAUUAUAAACAGAAGGUACUGACAUGAGGAUCACCCAUGUUUUAGUGUGGGCAUGUAGA [JMF's solution 77] (Eterna round: R96, puzzle: Exclusion NG 1)
3. AUGCUCCGUGUAGGAUAUCGCCGUACUACUCGGCGAGAAGGACAUGAGGAUCACCCAUGUAUGUUAUUAUCACGUGUGGCGCGC [Design 49] (Eterna round: R96, puzzle: Exclusion NG 1)
4. AUCGUGCAGCUUUGCUGUACGAGUACAUGAGGAUCACCCAUGUAGGAUAUGGUACGCUUUGCGUGCUAGAAGGAUAUGUGUUUG [EX ENG3 1.44] (Eterna round: R96, puzzle: Exclusion NG 3)
5. UUCGUGCAGCUUUGCUGUACGCGUACAUGAGGAUCACCCAUGUAGGAUAUGGUAGGCUUUGCUUACUAGAAGGAUAUAGUGAUC [JL EXNG3 1.31] (Eterna round: R96, puzzle: Exclusion NG 3)
6. UACAUGAGGAUCACCCAUGUUUUGUCGUGUAUGGUAUUUAUCUAGGAUAUCAAUUUAUUAAUUUAUGAGAAGGAGAAUAUUAAU [JMF's solution 20] (Eterna round: R96, puzzle: Exclusion NG 3)

1. 254 nM
2. 66.8 nM
3. 14 nM
4. 29.8 nM
5. 138 nM
6. 25.8 nM
